target: UniProtKB Q8ILY1; test: Fluorescence-based high-throughput DNA polymerase assay (molecular beacon), primary screen and dose-response; format: biochemical; conditions: conc 2.5 (unit not given); 90'; DRC-2
Let's look at some compounds and their measured % inhibition ApPOL 90'.
Express the result in % but write the number alone.

compound	% inhibition ApPOL 90' (%)
O=[N+]([O-])c1cc2c(cc1CN1CCCCCC1)OCO2 [KU0004987]	9
O=C(Nc1nnc(-c2ccno2)o1)c1ccc2ncsc2c1 [Molecule 62, O=C(c1ccc2c(c1)scn2)Nc1nnc(o1)c1ccno1]	4
O=C(Nc1ncc([N+](=O)[O-])s1)c1ccc2c(c1)C(=O)N(N1C(=O)c3ccccc3C1=O)C2=O [KU0026378]	8

query: Kindly state the measured % inhibition ApPOL 90' obtained for O=C(NNC(=O)C(F)(F)Sc1ccccc1)c1ccsc1 [Molecule 68, O=C(C(Sc1ccccc1)(F)F)NNC(=O)c1cscc1] with UniProtKB Q8ILY1.
result: 2.82

---

Property: % inhibition Apol 40'; scope: individual molecules
Molecular target: P. falciparum apicoplast DNA polymerase (Pf-apPOL) (Plasmodium falciparum, UniProt Q8ILY1)
Sequence (Q8ILY1 entry or part of it): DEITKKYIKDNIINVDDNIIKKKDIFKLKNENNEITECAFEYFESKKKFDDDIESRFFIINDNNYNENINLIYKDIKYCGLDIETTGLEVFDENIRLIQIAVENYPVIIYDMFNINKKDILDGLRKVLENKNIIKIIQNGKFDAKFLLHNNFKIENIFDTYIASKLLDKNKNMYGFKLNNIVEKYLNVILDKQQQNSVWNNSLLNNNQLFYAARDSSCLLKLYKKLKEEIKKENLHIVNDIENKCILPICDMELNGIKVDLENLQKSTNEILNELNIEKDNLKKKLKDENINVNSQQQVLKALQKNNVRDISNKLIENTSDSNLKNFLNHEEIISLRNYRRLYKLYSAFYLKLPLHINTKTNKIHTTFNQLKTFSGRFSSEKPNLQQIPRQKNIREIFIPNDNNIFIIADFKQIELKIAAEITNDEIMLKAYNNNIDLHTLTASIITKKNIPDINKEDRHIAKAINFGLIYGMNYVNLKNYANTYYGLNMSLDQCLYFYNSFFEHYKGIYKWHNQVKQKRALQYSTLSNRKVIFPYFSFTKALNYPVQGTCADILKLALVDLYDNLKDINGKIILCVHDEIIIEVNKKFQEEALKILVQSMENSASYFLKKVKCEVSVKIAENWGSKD
Experiment: Fluorescence-based high-throughput DNA polymerase assay (molecular beacon), primary screen and dose-response;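 as to % inhibition Apol 40': compound concentration given in µM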
Assay type: biochemical
Settings: conc. 20; 40'; DRC-2
Excerpt: The HT assay employs a molecular beacon, a stem-loop DNA template with a Cy3 dye and the Black Hole Quencher on the 3′ and 5′ ends of the DNA, respectively. Pf-apPOL concentration is based on a calculated absorptivity of ε280 = 56750 M^−1 cm^−1. […] To identify apPOL inhibitors we utilised our previously developed high-throughput DNA polymerase assay. […] The assay accurately recapitulates the kinetic behaviour of apPOL, as measured through more conventional low-throughput gel-based assays. […]
Enter the number, and then the unit.

molecule	measured_target	% inhibition Apol 40'
Cc1cc(C)cc(-n2nc3c(c2NC(=O)c2ccco2)CSC3)c1 [KU0055926]	P. falciparum apicoplast DNA polymerase (Pf-apPOL) (Plasmodium falciparum, UniProt Q8ILY1)	60%
COc1ccc(NC(=O)Cn2ccc3c(=O)[nH]ccc32)cc1 [Molecule 13, COc1ccc(cc1)NC(=O)Cn1ccc2c1cc[nH]c2=O]	P. falciparum apicoplast DNA polymerase (Pf-apPOL) (Plasmodium falciparum, UniProt Q8ILY1)	65%
O=c1cc(-c2ccccc2Cl)oc2c(NS(=O)(=O)c3cc(Cl)cc(Cl)c3O)ccc(O)c12 [KU0104277]	P. falciparum apicoplast DNA polymerase (Pf-apPOL) (Plasmodium falciparum, UniProt Q8ILY1)	11%
O=C(O)c1cccc(N2N=C(C(F)(F)F)/C(=C/c3ccc(-c4ccccc4[N+](=O)[O-])o3)C2=O)c1 [Molecule 100]	P. falciparum apicoplast DNA polymerase (Pf-apPOL) (Plasmodium falciparum, UniProt Q8ILY1)	65%

query: Entry under review: O=C(NCC1CCN(C2CCCC2)CC1)C(=O)NC1CCCC1 [KU0199596] . Reported % inhibition Apol 40'?
result: 34%

---

target: UniProt:Q8ILY1; test: Fluorescence-based high-throughput DNA polymerase assay (molecular beacon), primary screen and dose-response; type: biochemical; conditions: DRC-2, 40', concentration 5 (unit not given)
Would you please tag the item True when its % inhibition Apol 40' is 20% or above, and False when it is below?

Example results:
compound	measured_target	category
Cc1ccc(CCNC(=O)c2cnn3c(O)c(Cc4ccccc4F)c(C)nc23)cc1	UniProt:Q8ILY1	False
Nc1c(S(=O)(=O)O)cc(Nc2ccccc2)c2c1C(=O)c1ccccc1C2=O	UniProt:Q8ILY1	False
CCCCSc1nnc2c(n1)OC(c1ccc([N+](=O)[O-])o1)Nc1ccccc1-2 (stereo not drawn)	UniProt:Q8ILY1	True

query: # check: % inhibition Apol 40' of O=C(Nc1c2c(nn1-c1ccc(Oc3ccccc3)cc1)CSC2)c1ccco1 is greater than or equal to 20%
result: False

query: Would you say CCCCCCCCCCCCCCCCCC(=O)CCN(C)C shows % inhibition Apol 40' at minimum 20%?
result: False

query: Check if % inhibition Apol 40' >= 20% (inclusive). Item: O=c1cc(CN2CCCCC2)c2cc3c(cc2o1)OCO3
result: False

---

Biological target: bacteriophage T4 DNA polymerase (Enterobacteria phage T4, UniProt P04415)
Construct: made in house
Sequence (P04415 whole entry): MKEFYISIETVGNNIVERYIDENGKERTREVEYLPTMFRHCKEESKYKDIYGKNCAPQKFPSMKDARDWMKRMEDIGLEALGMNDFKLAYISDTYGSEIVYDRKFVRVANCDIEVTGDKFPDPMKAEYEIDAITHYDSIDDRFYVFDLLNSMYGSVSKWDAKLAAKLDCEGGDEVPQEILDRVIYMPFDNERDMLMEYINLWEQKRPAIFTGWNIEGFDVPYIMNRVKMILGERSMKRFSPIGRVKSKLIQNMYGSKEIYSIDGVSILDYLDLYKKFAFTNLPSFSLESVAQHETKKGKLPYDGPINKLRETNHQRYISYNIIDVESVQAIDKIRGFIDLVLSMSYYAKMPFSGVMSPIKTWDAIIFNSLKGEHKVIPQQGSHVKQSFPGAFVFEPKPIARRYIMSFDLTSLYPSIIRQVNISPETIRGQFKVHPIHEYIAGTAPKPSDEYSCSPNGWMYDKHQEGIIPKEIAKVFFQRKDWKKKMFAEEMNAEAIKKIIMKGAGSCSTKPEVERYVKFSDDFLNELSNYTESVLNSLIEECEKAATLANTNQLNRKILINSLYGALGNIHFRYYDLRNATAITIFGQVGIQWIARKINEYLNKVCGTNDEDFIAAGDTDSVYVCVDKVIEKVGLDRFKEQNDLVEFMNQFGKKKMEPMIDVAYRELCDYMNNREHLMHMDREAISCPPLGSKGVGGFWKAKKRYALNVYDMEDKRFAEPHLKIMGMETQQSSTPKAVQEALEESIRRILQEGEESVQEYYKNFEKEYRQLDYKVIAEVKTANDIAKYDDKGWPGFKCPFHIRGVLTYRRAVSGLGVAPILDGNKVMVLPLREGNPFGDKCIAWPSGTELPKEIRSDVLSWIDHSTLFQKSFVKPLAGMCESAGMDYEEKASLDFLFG
Assay: Counter-screen against bacteriophage T4 DNA polymerase
Format: biochemical
Conditions: DRC-1; read at 70'; concentration 20
Procedure: Codon-optimized, exonuclease-deficient Pf-apPOL was overexpressed in E. coli BL21 (DE3) and purified as described. The protein was dialysed against two, 1-liter changes of 20 mM Tris-HCl (pH 8.0), 400 mM NaCl, and 20% glycerol. […] Each compound was tested in a dose-response format to determine IC50 values. […] T4 DNA polymerase can be produced in large quantities, and is in the same family (B-family) as the replicative human DNA polymerases (α, δ, and ε)[20].
Parameter % inhibition T4 70' 20: see the listing below.
Lab book: enter the figure in %, no units written.

Previously resolved entries follow.
compound	% inhibition T4 70' 20 (%)
CCCc1ccc(Oc2coc3cc(OC)ccc3c2=O)cc1	-2.8267
Cn1nc(-c2nc(-c3ccccc3)no2)c2c1CCN(C(=O)Cc1cccs1)C2	17
O=C(c1ccccc1)N1CCc2c(nc3cc(-c4ccccc4)[nH]n3c2=O)C1	-3.401

query: Please look up its % inhibition T4 70' 20: COc1ccc(C2CC(c3ccc(Cl)cc3Cl)Nc3nc(N)nn32)cc1OC (centres unmarked)
result: 0.0404

query: Requested read-out: % inhibition T4 70' 20. Entry: COc1ccc(/C=C/c2cc(C(=O)O)c3ccccc3n2)cc1
result: 2.436

query: What value of % inhibition T4 70' 20 has been reported for the following compound? CC(C)CC(C(=O)O)N1C(=O)C2C3C=CC(C2C1=O)C1C(=O)N(C(CC(C)C)C(=O)O)C(=O)C31 (centres unmarked)
result: 3.878

query: If you can, please state the reported % inhibition T4 70' 20 value of Cc1ccsc1Cn1c(C)ccc1C .
result: 8.488

query: Need % inhibition T4 70' 20, item Cc1ccc(N2CCC(NC(=O)Cc3cccs3)C2=O)cc1C (centres unmarked)
result: 17.1422

---

target: bacteriophage T4 DNA polymerase (Enterobacteria phage T4); construct: made in house; assay: Counter-screen against bacteriophage T4 DNA polymerase; type: biochemical; conditions: DRC-2; read at 180'; concentration 40
compounds and their reported % inhibition T4 180' 40
Write the answer as a number in %, unit excluded.

Record excerpt, results attached:
chemical_structure	measure	observed_result
Cc1nc(C)c2c(n1)N(CC1CCCCC1)C(=O)CC2	% inhibition T4 180' 40	8
COc1ccccc1CC(=O)N1CCc2c(nc3cc(-c4ccccc4Cl)[nH]n3c2=O)C1	% inhibition T4 180' 40	-47

query: # lookup: % inhibition T4 180' 40 of Cc1cc2[nH]c(C(=O)Nc3ccc(F)cc3)c(CN3CCOCC3)c2s1
result: 20

---

# maps each entry to its % inhibition apPOL 180'
molecular target: P. falciparum apicoplast DNA polymerase (Pf-apPOL) (Plasmodium falciparum, UniProt Q8ILY1); assay: Fluorescence-based high-throughput DNA polymerase assay (molecular beacon), primary screen and dose-response; assay type: biochemical; settings: DRC-1; concentration 80; 180';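 as to % inhibition apPOL 180': test concentration in µM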
Answer as a quantity: numeral, then unit.

Observe how each entry below is paired with its result.
compound	observed_result
COc1ccc(NC(=O)Cn2nc3c(cc2=O)CCC3)cc1Cl	91%
COc1ccc(C=C2Oc3c(ccc4c3CN(Cc3ccco3)CO4)C2=O)c(OC)c1	90.2103%
CCCN1COc2ccc3c(=O)c(-c4ccccc4)coc3c2C1	92.1066%
CCOc1ccc2cc(C3=NN(C(=O)CCC(=O)O)C(c4ccc(C)cc4)C3)c(=O)[nH]c2c1 (stereo not drawn)	90.0477%
CCCCCc1c2c(cc(O)c1C(=O)O)OC(=O)c1c(cc(OC)cc1C(=O)CCCC)O2	92.215%

query: Query (compound): O=C(O)c1cc([N+](=O)[O-])c(N2CCN(c3cccc(C(F)(F)F)c3)CC2)c([N+](=O)[O-])c1 ; field requested: % inhibition apPOL 180'
result: 89.3704%

query: Entry Oc1cccnc1/N=C/c1cc(I)cc(I)c1O has what % inhibition apPOL 180'?
result: 87.5745%

query: # query: % inhibition apPOL 180' of entry O=C(Cc1cccs1)N1CCN(c2nc(CN3CCOCC3)cs2)CC1
result: 88%

query: Query: % inhibition apPOL 180'; subject: Cc1ccnc(NS(=O)(=O)c2ccc(-n3cccc3)cc2)n1
result: 89.3134%

---

biological target: P. falciparum apicoplast DNA polymerase (Pf-apPOL) (Plasmodium falciparum); experiment: Fluorescence-based high-throughput DNA polymerase assay (molecular beacon), primary screen and dose-response; format: biochemical; conditions: DRC-1; read at 10'; concentration 5
# % inhibition Apo pol 10' 5 per entry
Write your answer as a measured quantity: the number, then the unit.

Previously resolved entries follow.
compound	measure	observed_result
CC(=O)Nc1cc(C(=O)c2cccs2)nn(-c2ccc(Cl)cc2)c1=O [KU0267905]	% inhibition Apo pol 10' 5	9.678%
Cc1nc(C)c2c(n1)N(CC1CCCCC1)C(=O)CC2 [KU0218606]	% inhibition Apo pol 10' 5	39.9001%

query: Look up % inhibition Apo pol 10' 5 for this compound: N#Cc1c(O)nc(N2CCCCC2)nc1-c1ccc2c(c1)OCO2 [KU0083146]
result: 26.6749%

query: # get_value(readout='% inhibition Apo pol 10' 5', item= O=C(CCc1csc(NC(=O)Nc2ccccc2)n1)Nc1nc2ccccc2s1 [KU0177354] )
result: 8.503%

query: Which % inhibition Apo pol 10' 5 is reported for this compound? Cc1ccc(N2CCC(NC(=O)Cc3cccs3)C2=O)cc1C (centres unmarked) [Molecule 57, O=C(NC1CCN(C1=O)c1ccc(c(c1)C)C)Cc1cccs1]
result: 5.106%

query: Name the reported % inhibition Apo pol 10' 5 value associated with the compound O=C1CSC2=NC3=C(CCc4ccccc43)C(c3cccs3)N12 (centres unmarked) [Molecule 59, O=C1CSC2=NC3=C(C(N12)c1cccs1)CCc1c3cccc1]
result: 24.0896%

query: # query: % inhibition Apo pol 10' 5 of entry COc1ccc(C2CC(c3ccc(Cl)cc3Cl)Nc3nc(N)nn32)cc1OC (centres unmarked) [Molecule 43]
result: 39%

query: Please give the measured % inhibition Apo pol 10' 5 for this compound: Cc1cc2[nH]c(C(=O)Nc3ccc(F)cc3)c(CN3CCOCC3)c2s1 [Molecule 60]
result: 6.203%
